Entry source: ChEMBL document CHEMBL1153139

Collected pIC50 values appear next to each entry.
tested on: Human immunodeficiency virus 1; experiment: Antiviral activity against HIV1 KYAG primary isolate assessed as inhibition of virus-induced cytopathogenicity by MTT assay; format: functional, organism-based; conditions: Human immunodeficiency virus 1, KYAG
pIC50: −log10 of the molar value.

A selection of reference data follows.
CC1(C)CC(NC(=O)C(=O)Nc2ccccc2)CC(C)(C)N1 ... < 4.00
Cc1ccc(NC(=O)C(=O)NC2CC(C)(C)NC(C)(C)C2)cc1 ... 4.29
COc1ccc(NC(=O)C(=O)NC2CC(C)(C)NC(C)(C)C2)cc1 ... < 4.00
CC1(C)CC(NC(=O)C(=O)Nc2ccc(F)cc2)CC(C)(C)N1 ... < 4.00

Attention now turns to another entry.
# query: pIC50 of entry CC1(C)CC(NC(=O)C(=O)Nc2ccc(Cl)cc2)CC(C)(C)N1 < 4.52

====

assay: Inhibition of HIV1 gp120 binding to CD4; design: species or system Human immunodeficiency virus 1
parameter: pKd
Please keep in mind that pKd is minus log10 of the molar concentration; only the number is needed.

Given the entry CC1(C)CC(NC(=O)C(=O)Nc2ccc(Br)cc2)CC(C)(C)N1 , report its measured pKd. 5.66

====

assay: Cytotoxicity against mock-infected CCR5 expressing human PM1 cells by MTT assay; assay type: cell-based
CC50 values by entry
API: value field is a number in µM; no unit string.

Below are worked cases with known answers.
CC1(C)CC(NC(=O)C(=O)Nc2ccc(C(F)(F)F)cc2)CC(C)(C)N1 ... 72
CC1(C)CC(NC(=O)C(=O)Nc2ccc(F)cc2)CC(C)(C)N1 ... 320
CC1(C)CC(NC(=O)C(=O)Nc2ccc([N+](=O)[O-])cc2)CC(C)(C)N1 ... 230
CC1(C)CC(NC(=O)C(=O)Nc2ccc(Cl)cc2)CC(C)(C)N1 ... 170

// CC50 lookup, key: CC1(C)CC(NC(=O)C(=O)Nc2ccccc2)CC(C)(C)N1 350

// query CC50 value for entry COc1ccc(NC(=O)C(=O)NC2CC(C)(C)NC(C)(C)C2)cc1 340

// CC50 lookup, key: CC1(C)CC(NC(=O)C(=O)Nc2ccc(Br)cc2)CC(C)(C)N1 150
